biological target: EP2 (Homo sapiens, UniProt P43116);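 also: SF295 glioblastoma cells with endogenous EP2 only, PGE2-stimulated cAMP accumulation read by HTRF competitive immunoassay, 45 min pre-incubation then 30 min at room temperature, IBMX in buffer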
Sequence (P43116 whole entry): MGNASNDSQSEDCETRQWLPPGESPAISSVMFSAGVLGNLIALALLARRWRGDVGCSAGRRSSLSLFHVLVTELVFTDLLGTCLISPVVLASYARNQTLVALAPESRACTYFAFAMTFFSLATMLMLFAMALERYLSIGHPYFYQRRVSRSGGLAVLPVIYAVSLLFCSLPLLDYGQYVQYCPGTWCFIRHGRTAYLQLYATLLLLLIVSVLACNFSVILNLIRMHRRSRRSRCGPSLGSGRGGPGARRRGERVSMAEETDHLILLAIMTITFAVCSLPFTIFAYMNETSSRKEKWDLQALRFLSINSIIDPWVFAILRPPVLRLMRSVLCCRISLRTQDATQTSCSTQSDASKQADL
Property: IC50; scope: individual compounds
Write it as a number; the unit nM goes unstated.

Recorded IC50, per entry:
INSERT INTO results (compound, recorded_metric, observed) VALUES
  ('O=C(O)Cc1ccc(-c2cc(NCCc3c(F)cc(Br)cc3F)ncn2)cc1OC(F)F [Example 252]', 'IC50', 1910),
  ('Brc1ccc(CCNc2cc(-c3ccc(Cc4nnn[nH]4)s3)ncn2)cc1 [Example 288]', 'IC50', 739),
  ('COc1cccc(CCNc2cc(-c3cc(C(F)(F)F)c(C(=O)O)s3)ncn2)c1 [Example 63]', 'IC50', 644);

Continue with the compound presented below.
Entry CCOc1cc(-c2cc(NCCc3ccc(Br)cc3N(C)C)ncn2)sc1-c1noc(=O)[nH]1 [Example 109] , tested on EP2 (Homo sapiens, UniProt P43116), has a reported IC50 of 558

###

A set of compounds tested on EP2 (Homo sapiens), with measured pIC50:
In textbook form, pIC50 equals minus log to base ten of the concentration in mol/L.

Recorded pIC50, per entry:
INSERT INTO measurements (smiles_repr, observed) VALUES
  ('CCOc1cc(-c2cc(NCCc3c(F)cc(Br)cc3F)ncn2)sc1C(=O)NS(N)(=O)=O', 7.70),
  ('CCOc1cc(-c2cc(NCCc3cccc(F)c3)ncn2)sc1C(=O)O', 6.50),
  ('CCOc1cc(C(F)(F)F)ccc1CCNc1cc(-c2cc(OCC)c(C(=O)O)s2)ncn1', 7.92);

Continue with the compound presented below.
Reported pIC50 ( "COc1cc(C(F)(F)F)c(Cl)cc1CCNc1cc(-c2ccc(C(=O)O)c(SC)c2)ncn1" ) = 6.40

###

Property: IC50; scope: individual compounds
biological target: PTGER2 (EP2) (Homo sapiens)
Sequence (P43116 whole entry): as above
Write it as a number; the unit nM goes unstated.

Recorded IC50, per entry:
INSERT INTO results (smiles_repr, recorded_metric, value_units, observed) VALUES
  ('COc1ccc(SC)cc1CCNc1cc(-c2ccc(C(=O)O)c(OC3CCC3)c2)ncn1', 'IC50', 'nM', 107),
  ('O=c1[nH]c2ccc(-c3cc(NCCc4c(F)cc(Br)cc4F)ncn3)cc2o1', 'IC50', 'nM', 65),
  ('O=C(O)c1[nH]c(-c2cc(NCCc3c(F)cc(Br)cc3F)ncn2)cc1C1CC1', 'IC50', 'nM', 36);

Entry "COc1cc(C(F)F)c(F)cc1CCNc1cc(-c2ccc(C(=O)O)c(OC3CCC3)c2)ncn1" , tested on PTGER2 (EP2) (Homo sapiens), has a reported IC50 of 127

###

A set of compounds tested on EP4 (Homo sapiens), with measured IC50:
Write it as a number; the unit nM goes unstated.

Recorded IC50, per entry:
INSERT INTO assay_data (smiles_repr, value_units, observed) VALUES
  ('CCOc1cc(-c2cc(NCCc3c(F)cc(Br)cc3F)ncn2)sc1C(=O)NS(N)(=O)=O', 'nM', 62),
  ('CCCc1cc(-c2cc(NCCc3c(F)cc(Br)cc3F)ncn2)ccc1C(=O)O', 'nM', 433),
  ('CCOc1cc(-c2cc(NCCc3c(C)cccc3OC)ncn2)sc1C(=O)O', 'nM', 134);

Reported IC50 ( "CCOc1cc(-c2cc(NCCc3ccc(Cl)cc3C#N)ncn2)sc1-c1noc(=O)[nH]1" ) = 106

Reported IC50 ( "CCOc1cc(-c2cc(NCCc3ccc(Br)cc3)ncn2)sc1CCc1noc(=O)[nH]1" ) = 433

Reported IC50 ( "CCOc1cc(-c2cc(NCCc3c(OC)cc(Br)cc3OC)ncn2)sc1-c1noc(=O)[nH]1" ) = 6

Reported IC50 ( "CCOc1cc(-c2cc(NCCc3ccc(O)cc3)ncn2)sc1C(=O)O" ) = 170

Reported IC50 ( "O=C(O)Cc1ccc(-c2cc(NCCc3c(F)cc(Br)cc3F)ncn2)cc1OC(F)F" ) = 959
